Origin of values: ChEMBL document CHEMBL3865785

assay: Displacement of [3H]raclopride from D2-like dopaminergic receptor (unknown origin) in striatal membrane measured after 1 hr by liquid scintillation counting method; assay type: cell membranes, Homo sapiens, Striatum
reported.endpoint: pKi
# print the numeric value only

Solved entries (count: 6):
C/C=C/C1NCCc2cc(OC)c(OC)cc21 (configuration not stated)	5.059
C=CCN1CCc2cc(OC)c(OC)cc2C1/C=C/C (configuration not stated)	4.86
C/C=C/C1c2cc(O)c(O)cc2CCN1C (configuration not stated)	7.181
C=CCN1CCc2cc(OC)c(OC)cc2C1/C=C/c1ccccc1 (configuration not stated)	5.942
COc1cc2c(cc1OC)C(/C=C/c1ccccc1)N(C)CC2 (configuration not stated)	6.376
NCCc1ccc(O)c(O)c1	6.837

Task item: Which pKi value is on record for COc1cc2c(cc1OC)C(/C=C/c1ccccc1)NCC2 (configuration not stated) ?
Reply: 5.244
